- Tested on: K4 kissing-loop RNA reporter;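 further: bound reporter read as fluorescence of individual clusters on recovered sequencing chips by microscopy, with normalized cluster intensities fitted with a binding model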
- Assay name: apparent KD of K4 kissing-loop reporter; higher = weaker reporter binding
- Condition description: Eterna round: R107; input ligand: theophylline 20 uM
Measured property: apparent KD of K4 kissing-loop reporter

{"Residues": "CAUAGGAAACUAUGUUUCUCUCUUACUGAAGGAGCGCGUGAAAACGCAGGUAGGUCGCAGAAUUUGAGAGUGAUGUUCUCAUUAA [Ex Arginine A K4 14]", "Reported measurement": "201 nM"}
{"Residues": "CAUACGCAUGGAGGAUAUGAGAUUACUCAUGUCAUUUAAUAUUCUCAGUGAUGUUGAGAUUUUGGCUCAGAAGGCCAUGUGUAUG [Ex FMN B 18]", "Reported measurement": "599 nM"}
{"Residues": "CGUUUAUAGCAGGAUACCAGUACCCAUAAAGUACGUUAAUAGUAGAGUGAUGUUCUAAAGUACCCUUGGCAGCUUCGAGUGAGUG [ExTheophylB.R]", "Reported measurement": "103 nM"}
